- test-summary: Primary qHTS for inhibitors of nuclear receptor binding SET domain protein 2 (NSD2) in an isogenic RCH-ACV NSD2 p.E1099K mutant (9B) (AID 1645876); further: nearly all actives have a fitted effect of over 70% in size
- condition-label: RCH-ACV (leukaemia line) NSD2 E1099K (9B) viability, CellTiter-Glo, 72 h; series mostly up to 44.9 µM
Inconclusive results are not listed. Active and inactive are the calls of the source. The call rests on the fitted dose curve; in most records, active means well fitted inhibition curve with a large enough effect; inconclusive means small, poorly fitted or top-dose-only effect; inactive means flat fitted curve, though single readings scatter.
Just give me one of these, please: active, inactive

1) O=C(c1c(F)ccc(NS(=O)(=O)N2CC[C@@H](F)C2)c1F)c1c[nH]c2ncc(-c3cnc(C4CC4)nc3)cc12 = active
2) O=C(NNc1nc2cc(F)ccc2n2cccc12)c1cnccn1 = active

INPUT: State the result this test recorded for "CC(C)n1cnc2c(-c3cnc(N)nc3)nc(N3CCOCC3)nc21" .
OUTPUT: active

INPUT: Thanks! And CN(C)CC#CCCC(=O)C(O)(c1ccccc1)C1CCC1 (centres undefined) ?
OUTPUT: inactive

INPUT: Thanks! And CN(C)CCC(CSc1ccccc1)Nc1ccc(S(=O)(=O)NC(=O)c2ccc(N3CCN(Cc4ccccc4-c4ccc(Cl)cc4)CC3)cc2)cc1[N+](=O)[O-] (centres undefined) ?
OUTPUT: active

INPUT: Thanks! And "O=C(NCC1(N2CCN(c3ccccc3)CC2)CCOCC1)c1cccnc1Sc1ccccc1" ?
OUTPUT: inactive

INPUT: Thanks! And "O=C1Nc2ccccc2-c2nc3ccccc3c(=O)n2-c2c(O)cccc21" ?
OUTPUT: inactive

INPUT: Thanks! And "C=CC(=O)Nc1ccc(CN2C(=O)N(c3cc(OC)cc(OC)c3)Cc3cnc(Nc4ccc(N5CCN(C)CC5)cc4)nc32)cc1" ?
OUTPUT: active

INPUT: Thanks! And "C=C1[C@H]2CC[C@H](C(=O)O)[C@@]23CC[C@H](C3)C1(C)C" ?
OUTPUT: inactive

====

- Tested on: JEG-3
- test-summary: Primary qHTS to identify gynecologic anti-cancer compounds using libraries of approved drugs and bioactive compounds (AID 1345084); further: nearly all actives have a fitted effect of over 55% in size
- condition-label: Gynecologic cancer cell panel viability, ATPlite luminescence, 48 h; series mostly up to 57.5 µM
Records with an inconclusive call do not appear. Activity calls are given as the source filed them. The call rests on the fitted dose curve; in most records, active means well fitted cell-killing curve with a large enough effect; inconclusive means small, poorly fitted or top-dose-only effect, or effect the other way; inactive means flat fitted curve, though single readings scatter.
property-measured: activity change, negative = cytotoxicity

1. COc1ccc([C@H]2Cc3cccc(O)c3C(=O)O2)cc1OC = inactive
2. CN(C)CCCn1cc(C2=C(c3c[nH]c4ccccc34)C(=O)NC2=O)c2ccccc21 = inactive
3. C=C(C)[C@@H]1CC[C@]2(C(=O)O)CC[C@]3(C(=O)O)[C@H](CCC4[C@@]5(C)CCC(=O)C(C)(C)C5CC[C@]43C)C12 (stereo not given in full) = inactive
4. O=C(c1ccc(Cl)cc1)N1CCN(c2ccnc3cc(Cl)ccc23)CC1 = inactive
5. C=C1C(=O)OC2C=C(C)CC/C=C(\CO)CC(O)C12 (stereo not given) = inactive
6. Clc1ccc(Nc2nc3ccccc3c3nc(C4CCCCC4)[nH]c23)cc1Cl = inactive
7. C=CC(=O)Nc1cccc(Nc2nc(Nc3ccc(OCCOC)cc3)ncc2F)c1 = inactive
8. COc1cccc(N2CCN(C3=Nc4c(F)cccc4[C@H](CC(=O)O)N3c3cc(C(F)(F)F)ccc3OC)CC2)c1 = inactive
9. N#Cc1ccc2ncnc(NCCc3ccccc3)c2c1 = inactive

Please find the next compound below.
INPUT: // map "O=C(Nc1nnc(-c2ccc3c(c2)OCCO3)o1)C1CCCCC1" to recorded activity change, negative = cytotoxicity (system: JEG-3)
OUTPUT: inactive
